Where do these numbers come from? They come from the supplement of paper PMC11061612.

Reported combination Emax values are given for each entry in this list.
Tested on: VMRC-LCD (Lung Adenocarcinoma)
Experiment notes: combination Emax (second highest fraction inhibited in the dose matrix, 72 h); higher = more inhibition; extreme values may be limits of the assay
Just the number, please.

Study these solved cases before continuing.
* NC1(C(=O)N[C@@H](CCO)c2ccc(Cl)cc2)CCN(c2ncnc3[nH]ccc23)CC1 [Capivasertib] + Cn1cnc2c(F)c(Nc3ccc(Br)cc3Cl)c(C(=O)NOCCO)cc21 [Selumetinib] (first compound max 10 µM, 7x7, partner max 10 µM) | 0.248
* C=CCn1c(=O)c2cnc(Nc3ccc(N4CCN(C)CC4)cc3)nc2n1-c1cccc(C(C)(C)O)n1 [AZD1775] + C[C@@H]1COCCN1C2=NC(=NC(=C2)C3(CC3)[S@](=N)(=O)C)C4=C5C=CNC5=NC=C4 [AZD6738] (first compound max 1 µM, partner max 10 µM) | 0.733
* Cc1c2c(nn1C)CSCc1cc(n(C)n1)CSc1cc(c3ccccc3c1)OCCCc1c(C(=O)O)n(C)c3c-2c(Cl)ccc13 [AZD5991] + C1CN(CCC1(C(=O)N[C@@H](CCO)C2=CC=C(C=C2)Cl)N)C3=NC=NC4=C3C=CN4 [Capivasertib] (first compound max 1 µM, 7x7, partner max 3 µM) | 0.129

Could you now look at the following compound, please?
Data request: Suppose we examine the compound C[C@@H](Nc1cc(F)cc(F)c1)c1cc(C(=O)N(C)C)cc2c(=O)cc(N3CCOCC3)oc12 [AZD8186] + CC(=O)c1c(C)c2cnc(Nc3ccc(N4CCNCC4)cn3)nc2n(C2CCCC2)c1=O [Palbociclib] (first compound max 10 µM, 7x7, partner max 10 µM) ; what combination Emax value has been reported?
Data returned: 0.165

----------
Reported Bliss excess values are given for each entry in this list.
System: RPMI-7951 (Melanoma)
Experiment notes: Bliss excess, mean over the matrix (fraction); higher = more synergy

Study these solved cases before continuing.
• Cc1c2c(nn1C)CSCc1cc(n(C)n1)CSc1cc(c3ccccc3c1)OCCCc1c(C(=O)O)n(C)c3c-2c(Cl)ccc13 [AZD5991] + CC1(C)CCC(CN2CCN(c3ccc(C(=O)NS(=O)(=O)c4ccc(NCC5CCOCC5)c([N+](=O)[O-])c4)c(Oc4cnc5[nH]ccc5c4)c3)CC2)=C(c2ccc(Cl)cc2)C1 [Venetoclax] (first compound max 1 µM, 7x7, partner max 1 µM) = -0.0568
• C[C@@H]1COCCN1c1cc(C2([S@](C)(=N)=O)CC2)nc(-c2ccnc3[nH]ccc23)n1 [AZD6738] + O=C(c1cc(Cc2n[nH]c(=O)c3ccccc23)ccc1F)N1CCN(C(=O)C2CC2)CC1 [Olaparib] (first compound max 10 µM, 7x7, partner max 10 µM) = 0.0207
• CN(C)CCCOc1ccc(-c2ccc3ncc4c(c3c2)n(C2CCOCC2)c(=O)n4C)cn1 [AZD0156] + C=CCn1c(=O)c2cnc(Nc3ccc(N4CCN(C)CC4)cc3)nc2n1-c1cccc(C(C)(C)O)n1 [AZD1775] (first compound max 1 µM, partner max 1 µM) = -0.0055

Could you now look at the following molecule, please?
Data request: Suppose we examine the molecule COc1nnc2ccc(N3CCC(c4ccc(OCCN5CCN(C)C(=O)[C@H]5C)cc4)CC3)nn12 [AZD5153] + C=CCn1c(=O)c2cnc(Nc3ccc(N4CCN(C)CC4)cc3)nc2n1-c1cccc(C(C)(C)O)n1 [AZD1775] (first compound max 1 µM, partner max 1 µM) ; what Bliss excess value has been reported?
Data returned: -0.0223

----------
Reported Bliss excess values are given for each entry in this list.
System: KLE (Endometrial Carcinoma)
Experiment notes: Bliss excess, mean over the matrix (fraction); higher = more synergy
Just the number, please.

Study these solved cases before continuing.
• Cc1cc2ncnn2cc1Nc1ncc2c(n1)n(C1CCOCC1)c(=O)n2C [AZD7648] + C[C@@H]1COCCN1C2=NC(=NC(=C2)C3(CC3)[S@](=N)(=O)C)C4=C5C=CNC5=NC=C4 [AZD6738] (first compound max 10 µM, 7x7, partner max 10 µM) = -0.0639
• Cc1c2c(nn1C)CSCc1cc(n(C)n1)CSc1cc(c3ccccc3c1)OCCCc1c(C(=O)O)n(C)c3c-2c(Cl)ccc13 [AZD5991] + C=CCn1c(=O)c2cnc(Nc3ccc(N4CCN(C)CC4)cc3)nc2n1-c1cccc(C(C)(C)O)n1 [AZD1775] (first compound max 1 µM, partner max 1 µM) = -0.0616
• Cc1c2c(nn1C)CSCc1cc(n(C)n1)CSc1cc(c3ccccc3c1)OCCCc1c(C(=O)O)n(C)c3c-2c(Cl)ccc13 [AZD5991] + C[C@@H]1COCCN1C2=NC(=NC(=C2)C3(CC3)[S@](=N)(=O)C)C4=C5C=CNC5=NC=C4 [AZD6738] (first compound max 1 µM, 7x7, partner max 10 µM) = -0.0021

Could you now look at the following molecule, please?
Data request: Bliss excess of CCN(CCO)CCCOc1ccc2c(Nc3cc(CC(=O)Nc4cccc(F)c4)[nH]n3)ncnc2c1 [AZD2811] + C[C@@H]1COCCN1C2=NC(=NC(=C2)C3(CC3)[S@](=N)(=O)C)C4=C5C=CNC5=NC=C4 [AZD6738] (first compound max 1 µM, 7x7, partner max 10 µM) on KLE (Endometrial Carcinoma)?
Data returned: -0.0262

----------
Reported combination Emax values are given for each entry in this list.
System: OVISE (Ovarian Carcinoma)
Experiment notes: combination Emax (second highest fraction inhibited in the dose matrix, 72 h); higher = more inhibition; extreme values may be limits of the assay
Just the number, please.

* CC1(C)CCC(CN2CCN(c3ccc(C(=O)NS(=O)(=O)c4ccc(NCC5CCOCC5)c([N+](=O)[O-])c4)c(Oc4cnc5[nH]ccc5c4)c3)CC2)=C(c2ccc(Cl)cc2)C1 [Venetoclax] + C=CCn1c(=O)c2cnc(Nc3ccc(N4CCN(C)CC4)cc3)nc2n1-c1cccc(C(C)(C)O)n1 [AZD1775] (first compound max 1 µM, partner max 1 µM) | 0.669

Data request: Suppose we examine the molecule COc1cccc2c1C(=O)c1c(O)c3c(c(O)c1C2=O)C[C@@](O)(C(=O)CO)C[C@@H]3O[C@H]1C[C@H](N)[C@H](O)[C@H](C)O1 [Doxorubicin] + Cc1cc2ncnn2cc1Nc1ncc2c(n1)n(C1CCOCC1)c(=O)n2C [AZD7648] (first compound max 1 µM, 7x7, partner max 10 µM) ; what combination Emax value has been reported?
Data returned: 0.554

Data request: Suppose we examine the molecule COc1cccc(OCCCN)c1-c1cc(Nc2cnc(C#N)cn2)n[nH]1 [Prexasertib] + CN(C)CCCOc1ccc(-c2ccc3ncc4c(c3c2)n(C2CCOCC2)c(=O)n4C)cn1 [AZD0156] (first compound max 1 µM, 7x7, partner max 1 µM) ; what combination Emax value has been reported?
Data returned: 0.796

Data request: Suppose we examine the molecule CS(=O)(=O)CCNCc1ccc(-c2ccc3ncnc(Nc4ccc(OCc5cccc(F)c5)c(Cl)c4)c3c2)o1 [Lapatinib] + NC1(c2ccc(-c3nc4ccn5c(=O)[nH]nc5c4cc3-c3ccccc3)cc2)CCC1 [MK-2206] (first compound max 10 µM, 7x7, partner max 10 µM) ; what combination Emax value has been reported?
Data returned: 0.928

Data request: Suppose we examine the molecule CN(C)CCCOc1ccc(-c2ccc3ncc4c(c3c2)n(C2CCOCC2)c(=O)n4C)cn1 [AZD0156] + C=CCn1c(=O)c2cnc(Nc3ccc(N4CCN(C)CC4)cc3)nc2n1-c1cccc(C(C)(C)O)n1 [AZD1775] (first compound max 1 µM, partner max 1 µM) ; what combination Emax value has been reported?
Data returned: 0.7

Data request: Suppose we examine the molecule Cc1nc(Nc2ncc(C(=O)Nc3c(C)cccc3Cl)s2)cc(N2CCN(CCO)CC2)n1 [Dasatinib] + CC(=O)Nc1cccc(-n2c(=O)n(C3CC3)c(=O)c3c(Nc4ccc(I)cc4F)n(C)c(=O)c(C)c32)c1 [Trametinib] (first compound max 2 µM, 7x7, partner max 1 µM) ; what combination Emax value has been reported?
Data returned: 0.828

----------
Test system: U-87-MG (Glioblastoma)
Experiment notes: combination Emax (second highest fraction inhibited in the dose matrix, 72 h); higher = more inhibition; extreme values may be limits of the assay
Binary classification by combination Emax, with 0.4 as an inclusive lower bound for rule met; all other cases are rule not met.

Before answering, review these 4 worked examples.
* Cc1nc(Nc2ncc(C(=O)Nc3c(C)cccc3Cl)s2)cc(N2CCN(CCO)CC2)n1 [Dasatinib] + CC(=O)Nc1cccc(-n2c(=O)n(C3CC3)c(=O)c3c(Nc4ccc(I)cc4F)n(C)c(=O)c(C)c32)c1 [Trametinib] (first compound max 2 µM, 7x7, partner max 1 µM) | rule not met
* NC1(C(=O)N[C@@H](CCO)c2ccc(Cl)cc2)CCN(c2ncnc3[nH]ccc23)CC1 [Capivasertib] + C[C@@H]1COCCN1C2=NC(=NC(=C2)C3(CC3)[S@](=N)(=O)C)C4=C5C=CNC5=NC=C4 [AZD6738] (first compound max 10 µM, 7x7, partner max 10 µM) | rule met
* COc1nnc2ccc(N3CCC(c4ccc(OCCN5CCN(C)C(=O)[C@H]5C)cc4)CC3)nn12 [AZD5153] + Cn1cnc2c(F)c(Nc3ccc(Br)cc3Cl)c(C(=O)NOCCO)cc21 [Selumetinib] (first compound max 1 µM, 7x7, partner max 10 µM) | rule met
* Cn1cnc2c(F)c(Nc3ccc(Br)cc3Cl)c(C(=O)NOCCO)cc21 [Selumetinib] + C[C@@H]1COCCN1C2=NC(=NC(=C2)C3(CC3)[S@](=N)(=O)C)C4=C5C=CNC5=NC=C4 [AZD6738] (first compound max 10 µM, 7x7, partner max 10 µM) | rule met

In the following, a different compound is considered.
Data request: Textbook exercise: given the entry CN(CCO)CC[C@H](CSc1ccccc1)Nc1ccc(S(=O)(=O)NC(=O)c2ccc(N3CCC([C@@H](O)c4ccccc4-c4ccc(Cl)cc4)CC3)cc2)cc1S(=O)(=O)C(F)(F)F [AZD4320] + C=CCn1c(=O)c2cnc(Nc3ccc(N4CCN(C)CC4)cc3)nc2n1-c1cccc(C(C)(C)O)n1 [AZD1775] (first compound max 1 µM, partner max 1 µM) , state whether its combination Emax is greater than or equal to 0.4.
Data returned: rule not met
